# key: entry, value: % Change from Control
test system: rat hepatic microsomal PTPases; settings: PTPase activity, compound at 50 μM, rat liver microsomes
The reply must contain the numeric value and, after it, the unit.

Here are 3 molecules together with their reported answers.
CCCCc1oc2ccccc2c1Cc1ccc2c(I)c(OC(Cc3ccccc3)C(=O)O)ccc2c1 (stereo not shown) [Example 8] ... -58%
CCCCc1oc2ccccc2c1Cc1ccc2c(Br)c(O)ccc2c1 [Example 3] ... -37%
CCCCc1oc2ccccc2c1C(O)c1ccc(-c2ccc(OCC(=O)O)cc2)cc1 (stereo not shown) [Example 19] ... -24%

Reported % Change from Control, molecule CCCCc1oc2ccccc2c1Cc1ccc2c(Br)c(OC(Cc3ccccc3)C(=O)O)ccc2c1 (stereo not shown) [Example 5] : ____
-59%

Source: patent US6110963A
